Cited source: paper PMC2756588

Target: Bem1-2, P29366
Sequence (P29366 139-227): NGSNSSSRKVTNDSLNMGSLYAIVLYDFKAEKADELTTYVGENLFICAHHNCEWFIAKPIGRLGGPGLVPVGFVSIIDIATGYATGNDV
Test: SPOT array
Conditions: median of control spots 4347
measured.metric: SPOT intensity

{"binder": "HAPPLPPTAPPPPSL", "measured.metric": "SPOT intensity", "readout.number": 0}
{"binder": "LLRRTIPKRPFYHVL", "measured.metric": "SPOT intensity", "readout.number": 108}
{"binder": "PIVPSSPAPPLPLSG", "measured.metric": "SPOT intensity", "readout.number": 0}
{"binder": "AVPPPPPPPPLPESL", "measured.metric": "SPOT intensity", "readout.number": 2}
{"binder": "APERAVPILPPRNNV", "measured.metric": "SPOT intensity", "readout.number": 2}

I. TKFRISLGLPVGAIM
II. YVRRRPRVRLEPLLS
III. LRWRHKFFLPAIAAI
IV. PVLPPPRSPNRPTLS
V. KKEKKPPKIPKKVYT
Query :: Order each entry by recorded SPOT intensity, climbing from the minimum. Rank the items, then write their labels in that order.
Result :: I, III, V, IV, II

I. NRARYLPQNPDIIAG
II. RSVKRPRRAPRPVVS
III. QGYPRQPQRPQRYHP
IV. IHTRRPSSTSQYLIR
V. HPRFVSPRIPSRIVK
Query :: Please give the order of these binders when sorted by SPOT intensity, largest value leading. Rank the items, then write their labels in that order.
Result :: IV, II, V, III, I

A. RKRAPTPPAPSRSEK
B. NLPKRKPPKLQGPFS
Query :: Field: lower SPOT intensity | Options: A / B Pick one; state its label.
Result :: A

A. VRTRRRPPPPPIPST
B. GRSRLFPHSPLGRSS
C. VDFTLPPPPPPPGLD
Query :: Order each entry by recorded SPOT intensity, climbing from the minimum. Rank the items, then write their labels in that order.
Result :: C, B, A
(C: 0, B: 5, A: 109)
